experiment: Plasma PK of ixazomib given with lenalidomide–dexamethasone, phase 1 study in East Asian patients with RRMM (LC/MS/MS, non-compartmental analysis); format: in vivo, human; details: human, plasma, oral, terminal disposition phase; cycle 1 day 15; Overall; geometric mean (% CV); read-out: t1/2 (converted)
READOUT_LABEL: half-life (h)
One number for each entry, in h.

half-life lookup needed for CC(C)C[C@H](NC(=O)CNC(=O)c1cc(Cl)ccc1Cl)B(O)O , thanks.
147

----------
assay: Plasma PK of ixazomib given with lenalidomide–dexamethasone, phase 1 study in East Asian patients with RRMM (LC/MS/MS, non-compartmental analysis); type: in vivo, human; settings: human, plasma, po, cycle 1 day 15; Overall; geometric mean (% CV); 4.0 mg oral + lenalidomide–dexamethasone
READOUT_LABEL: Cmax (ng/mL)
Answers are plain numbers, in ng/mL.

Any idea what Cmax was measured for CC(C)C[C@H](NC(=O)CNC(=O)c1cc(Cl)ccc1Cl)B(O)O ?
43.9

----------
experiment: Plasma PK of ixazomib given with lenalidomide–dexamethasone, phase 1 study in East Asian patients with RRMM (LC/MS/MS, non-compartmental analysis); assay type: in vivo, human; details: human, plasma, oral, geometric mean; after multiple dosing; overall East Asian patients; read-out: terminal half-life (converted)
READOUT_LABEL: half-life (h)
Give bare numbers, in h.

So what does the record say about half-life for CC(C)C[C@H](NC(=O)CNC(=O)c1cc(Cl)ccc1Cl)B(O)O [ixazomib] ?
146
